# test_system: human 11β-HSD1 enzyme (Homo sapiens)
# Construct: stably transfected with a construct containing the full-length gene coding for the human 11β-HSD1 enzyme; expressed in transfected cells; HEK293/11β-HSD1 cells)
# Sequence (P28845 whole entry): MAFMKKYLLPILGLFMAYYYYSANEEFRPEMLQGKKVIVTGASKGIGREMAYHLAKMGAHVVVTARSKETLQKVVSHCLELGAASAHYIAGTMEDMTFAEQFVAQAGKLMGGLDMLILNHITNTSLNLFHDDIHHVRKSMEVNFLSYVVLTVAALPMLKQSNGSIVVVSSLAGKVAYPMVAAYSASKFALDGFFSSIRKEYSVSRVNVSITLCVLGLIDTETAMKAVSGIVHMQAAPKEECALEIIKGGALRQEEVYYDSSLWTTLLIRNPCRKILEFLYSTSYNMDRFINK
# method_description: Cellular in vitro 11β-HSD1 enzyme inhibition assay (SPA, HEK293/11β-HSD1 cells)
# Assay type: cell-based
# study_conditions: read-out: IC50 for 11β-HSD1 (HEK293)
pIC50: −log10 of the molar value.
Below is a list of entries, each paired with its recorded pIC50 value.

Before answering, review these 10 worked examples.
[[record]]
molecule = "O=C(c1csc(-c2cn[nH]c2)c1)N1CC2CCC(C1)C2(F)c1ccccc1 (stereo not shown)"
experimental_readout = "pIC50"
result = "5.00 to 6.00"

[[record]]
molecule = "O=C(c1csc(-c2cn[nH]c2)c1)N1CCC(O)(c2ccc(F)cc2F)CC1"
experimental_readout = "pIC50"
result = "≥ 6.30"

[[record]]
molecule = "O=C(c1csc(-c2cn[nH]c2)c1)N1CCC(F)(c2ccccc2)CC1"
experimental_readout = "pIC50"
result = "6.00 to 6.30"

[[record]]
molecule = "CC1(c2ccccc2Cl)CCN(C(=O)c2csc(-c3cn[nH]c3)c2)CC1"
experimental_readout = "pIC50"
result = "≥ 6.30"

[[record]]
molecule = "O=C(c1csc(-c2cn[nH]c2)c1)N1CCC(c2ccccc2CO)CC1"
experimental_readout = "pIC50"
result = "≥ 6.30"

[[record]]
molecule = "N#Cc1ccc(C2CCN(C(=O)c3csc(-c4cn[nH]c4)c3)CC2)cc1"
experimental_readout = "pIC50"
result = "5.00 to 6.00"

[[record]]
molecule = "O=C(c1csc(-c2cn[nH]c2)c1)N1C2CCC1CC(O)(c1ccccc1Cl)C2 (stereo not shown)"
experimental_readout = "pIC50"
result = "≥ 6.30"

[[record]]
molecule = "Cc1cccc(F)c1C1(F)CCN(C(=O)c2csc(-c3cn[nH]c3)c2)CC1"
experimental_readout = "pIC50"
result = "≥ 6.30"

[[record]]
molecule = "O=C(c1csc(-c2cn[nH]c2)c1)N1CCC(O)(c2ccccc2C(F)(F)F)CC1"
experimental_readout = "pIC50"
result = "≥ 6.30"

[[record]]
molecule = "O=C(c1csc(-c2cn[nH]c2)c1)N1CCC(O)(c2ccc(Cl)cc2F)CC1"
experimental_readout = "pIC50"
result = "≥ 6.30"


Returns the measured pIC50 for the input molecule. Input: O=C(c1csc(-c2cn[nH]c2)c1)N1CC2CCC(C1)C2(O)c1ccccc1 (stereo not shown)
6.00 to 6.30

Another molecule to look at: O=C(c1csc(-c2cn[nH]c2)c1)N1CCC(O)(c2c(Cl)cccc2Cl)CC1
≥ 6.30

The origin of these recorded values is patent US8642621B2.
